Every entry's value here was drawn from patent US6797726B1.

System: ddY male mice
Assay: Anti-hypoxic activity
Assay type: in vivo
Conditions: Mus musculus, po, 0.5 h, 100 mg/kg orally, 30 minutes after administration, gas 4% oxygen / 96% nitrogen at 5 L/minute, read-out: Anti-hypoxic activity: (survival time of mouse in administered group)÷(survival time of mouse in control group)×100
Structures can show the parent of a compound that is named as a salt.
Tag: criterion met if measured response vs control in vivo at 100 mg/kg is not below 200%, criterion not met if it is.

CCN(CC)CCOCCc1ccc2occc2c1 [Example 13, oxalate] ... criterion not met
CN(CCOCCc1ccc2sccc2c1)C1CC1 [Example 158, hydrochloride] ... criterion not met
CC(O)CN(C)CCOCCc1ccc2sccc2c1 (centres unmarked) [Example 144, oxalate] ... criterion met
CCN(C)CCOCCc1ccc2sccc2c1 [Example 102, oxalate] ... criterion met
CCN(CC)CCOCCc1ccc2ccsc2c1 [Example 101, oxalate] ... criterion not met
CCN(CC)CCOCCc1cc2ccsc2cc1F [Example 31, oxalate] ... criterion met
CCN(CC)CCOCCc1cccc2ccccc12 [Example 49, oxalate] ... criterion not met
CN(CCOCCc1ccc2sccc2c1)Cc1ccccc1.O=C(O)C(=O)O [Example 20, oxalate] ... criterion not met

----------
The entries below are paired with their reported melting point.
PROPERTY: melting point

CCN(CC)CCOCCc1c(F)cc2ccsc2c1F.Cl ... 98 to 100 °C
CC(C)N(CCOCCc1ccc2sccc2c1)C(C)C.Cl ... 78 to 79 °C
CCN(CC)CCCCCOCCc1ccc2sccc2c1.Cl ... 138.5 to 140 °C
CN(CCO)CCOCCc1c(F)cc2ccsc2c1F.Cl ... 95.5 to 97.5 °C
CCN(CCO)CCOCCc1ccc2sccc2c1.O=C(O)C(=O)O ... 53 to 56 °C
CN(CCOCCc1ccc2sccc2c1)CCOC(=O)C(C)(C)C.Cl ... 118 to 119 °C
CCN(CC)CCCOCCc1ccc2sccc2c1.O=C(O)C(=O)O ... 87.5 to 89 °C
CN(CCOCCc1ccc2sccc2c1)Cc1ccc(F)cc1.O=C(O)C(=O)O ... 149 to 150.5 °C
CCN(CC)CCOCCc1ccc2occc(=O)c2c1.Cl ... 173 to 176 °C
CN(CCO)CCOCCc1cc2ccsc2cc1F.O=C(O)C(=O)O ... 96 to 99 °C
CCN(CC)CCOCCc1ccc2ccccc2c1.O=C(O)C(=O)O ... 67 to 72 °C
CN(C)CCOCCc1ccc(F)c2ccsc12.Cl ... 67 to 69 °C

----------
The entries below are paired with their reported melting point.
PROPERTY: melting point

CN(C)CCOCCc1ccc2occc2c1.O=C(O)C(=O)O ... 101 to 103 °C
CCN(CC)CCOCCc1ccc2sc(C(=O)O)cc2c1.Cl ... 148 to 150 °C
CN(C)CCOCCc1cc2ccsc2cc1Cl.Cl ... 105 to 108 °C
CN(C)CCOCCc1ccc2sc(-c3ccccc3)cc2c1.Cl ... 170 to 172 °C
CC(COCCc1ccc2sccc2c1)N(C)CCO.O=C(O)C(=O)O (stereo not shown) ... 72 to 74 °C
CN(C)CCOCCc1ccc2c(c1)OCO2.O=C(O)C(=O)O ... 109 to 112 °C
CCN(CC)CCOCCc1ccc2sc(C)cc2c1.O=C(O)C(=O)O ... 96 to 98 °C
CN(C)CCN(C)CCOCCc1ccc2sccc2c1.Cl.Cl ... 228 to 230 °C
CN(C)CCOCCc1ccc2ccccc2c1.Cl ... 105 to 107 °C
CN(C)CCOCCc1cccc2sccc12.Cl ... 165 to 167 °C
CN(CCO)CCOCCc1cccc2ccsc12.Cl ... 74 to 76 °C
CN(CCO)CCCCCOCCc1ccc2sccc2c1.O=C(O)C(=O)O ... 78.5 to 80.5 °C
CN(CCO)CCOCCc1ccc2sc(F)cc2c1.O=C(O)C(=O)O ... 77 to 80 °C
CCN(CC)CCOCCc1ccc2c(c1)OCO2 [Example 25] ... 83 to 84 °C
CCOC(=O)OCCN(C)CCOCCc1ccc2sccc2c1.Cl ... 73.5 to 76 °C
CN(CCOCCc1ccc2sccc2c1)Cc1ccc([N+](=O)[O-])cc1.O=C(O)C(=O)O ... 112 to 114 °C
Cc1cc2cc(CCOCCN(C)CCO)ccc2s1.O=C(O)C(=O)O ... 73 to 75 °C
CCN(CC)CCOCCc1ccc2c(c1)CCC2.Cl [Example 105] ... 104 to 105 °C
CCN(CC)CCOCCc1cccc2sccc12.O=C(O)C(=O)O ... 79 to 82 °C
O=C(O)C(=O)O.OCCN(CCOCCc1ccc2sccc2c1)Cc1ccccc1 ... 104 to 105.5 °C
CCN(CC)CCOCCc1c(F)ccc2ccsc12.Cl ... 71 to 73.5 °C
CN(CCOCCc1cc2ccsc2cc1F)Cc1ccccc1.O=C(O)C(=O)O ... 96 to 98 °C
C#CCN(CCOCCc1ccc2sccc2c1)Cc1ccccc1.O=C(O)C(=O)O ... 107 to 108 °C
CCN(CC)CCCCCc1ccc2sccc2c1.O=C(O)C(=O)O ... 58 to 60 °C
CCCN(CCC)CCOCCc1ccc2sccc2c1.O=C(O)C(=O)O ... 93 to 98 °C
COc1ccc2cc(CCOCCN(C)C)ccc2c1.Cl ... 125 to 128 °C
CCN(CC)CCOCCc1cc2occc2cc1OC.Cl ... 90 to 92 °C
CCC(Cc1ccc2sccc2c1)OCCN(CC)CC.Cl (stereo not shown) ... 84.5 to 87 °C
CN(C)CCOCCc1ccc2sccc2c1Cl.Cl ... 92 to 95 °C
CN(CCO)CCOCCc1c(F)ccc2ccsc12.Cl ... 69 to 72 °C
COc1ccc(CN(C)CCOCCc2ccc3sccc3c2)cc1.O=C(O)C(=O)O ... 78.5 to 81 °C
CN(C)CCOCCc1cc2ccsc2cc1F.O=C(O)C(=O)O ... 120 to 126 °C
CCN(CC)CCOCCc1cccc2ccsc12.O=C(O)C(=O)O ... 75 to 76 °C
CN(C)CCOCCc1ccc2sccc2c1F.O=C(O)C(=O)O ... 118 to 121 °C
CN(CCOCCc1ccc2sccc2c1)CCOC(=O)c1ccccc1.Cl ... 97 to 98 °C
CN(C)CCOCCc1cccc2ccccc12.Cl ... 183 to 184 °C
CCN(CC)CCOCCc1ccc2sc(-c3ccccc3)cc2c1.Cl [Example 27] ... 131 to 138 °C
CN(CCCO)CCOCCc1ccc2sccc2c1.O=C(O)C(=O)O ... 93 to 95 °C
CC(CO)N(C)CCOCCc1ccc2sccc2c1.O=C(O)C(=O)O (stereo not shown) ... 97 to 99 °C
CCN(CC)CCOCCc1cc2ccsc2cc1OC.O=C(O)C(=O)O ... 80 to 83 °C
CCN(CC)CCOCCc1ccc2ncccc2c1.O=C(O)C(=O)O ... 90 to 92 °C
C#CCN(CC)CCOCCc1ccc2sccc2c1.Cl ... 115 to 123 °C
CN(C)CCOCCc1cccc2ccsc12.Cl ... 130 to 132 °C

----------
Tested on: ddY male mice
Experiment: Anti-hypoxic activity
Assay type: in vivo
Conditions: Mus musculus, po, 0.5 h, 100 mg/kg orally, 30 minutes after administration, gas 4% oxygen / 96% nitrogen at 5 L/minute, read-out: Anti-hypoxic activity: (survival time of mouse in administered group)÷(survival time of mouse in control group)×100
Where a name gives a salt, the structure may show the parent alone.
PROPERTY: response vs control in vivo at 100 mg/kg (%)

CN(CCO)CCOCCc1ccc2sccc2c1.O=C(O)C(=O)O [Example 68, oxalate] ... 202
COc1cc2sccc2cc1CCOCCN(C)C [Example 53, hydrochloride] ... 200
CN(CCO)CCCOCCc1ccc2sccc2c1.O=C(O)C(=O)O [Example 76, oxalate] ... 194
